ASSAY_METHOD_TEXT: Blood concentration of L-DOPA following oral administration of L-DOPA or an L-DOPA derivative to Beagle dogs
CONDITION_PARAMETERS: L-DOPA in blood after oral administration; three Beagle dogs
PROPERTY_NAME: area under the curve (µg/h/mL)

1) CC(=O)Oc1ccc(C[C@H](N)C(=O)NCC(=O)O)cc1OC(C)=O.Cl : 5.30
2) N[C@@H](Cc1ccc(O)c(O)c1)C(=O)O [(0), 3,4-dihydroxy-L-phenylalanine, reference compound] : 2.6
3) CC(=O)Oc1ccc(C[C@H](N)C(=O)OCc2ccccc2)cc1OC(C)=O.Cl : 5.96

(P) COC(=O)[C@H](Cc1ccc(OC(C)=O)c(OC(C)=O)c1)NC(=O)CN.Cl
(Q) CC(=O)Oc1ccc(C[C@H](NC(=O)CN)C(=O)O)cc1OC(C)=O.Cl
Query: For P and Q , which recorded area under the curve is lower? To answer, give the label that identifies your chosen option.
Response: P
(P: 3.38 µg/h/mL, Q: 7.25 µg/h/mL)

----------
ASSAY_METHOD_TEXT: Blood concentration of L-DOPA following oral administration of L-DOPA or an L-DOPA derivative to Beagle dogs
CONDITION_PARAMETERS: blood, 1.5 hours after oral administration of 0.1 of L-DOPA or equivalent amount of derivative; three Beagle dogs
PROPERTY_NAME: [L-DOPA] (μg/ml) at time (hours) 1.5 (µg/mL)

1) CC(=O)Oc1ccc(C[C@H](NC(=O)CN)C(=O)O)cc1OC(C)=O.Cl [Compound (III)] : 1.21

(1) COC(=O)[C@H](Cc1ccc(OC(C)=O)c(OC(C)=O)c1)NC(=O)CN.Cl [Compound (IV)]
(2) CC(=O)Oc1ccc(C[C@H](N)C(=O)OCc2ccccc2)cc1OC(C)=O.Cl [Compound (II)]
(3) CC(=O)Oc1ccc(C[C@H](N)C(=O)NCC(=O)O)cc1OC(C)=O.Cl [Compound (V)]
Query: Reorder: [L-DOPA] (μg/ml) at time (hours) 1.5, max to min. Write the labels in rank order as requested.
Response: 3, 2, 1

----------
ASSAY_METHOD_TEXT: Blood concentration of L-DOPA following oral administration of L-DOPA or an L-DOPA derivative to Beagle dogs
CONDITION_PARAMETERS: blood, 4.0 hours after oral administration of 0.1 of L-DOPA or equivalent amount of derivative; three Beagle dogs
PROPERTY_NAME: [L-DOPA] (μg/ml) at time (hours) 4.0 (µg/mL)

// known answers, use as guide
1) CC(=O)Oc1ccc(C[C@H](NC(=O)CN)C(=O)O)cc1OC(C)=O.Cl : 0.13
2) CC(=O)Oc1ccc(C[C@H](N)C(=O)NCC(=O)O)cc1OC(C)=O.Cl : 0.03
3) N[C@@H](Cc1ccc(O)c(O)c1)C(=O)O [(0), 3,4-dihydroxy-L-phenylalanine, reference compound] : 0.22

(a) CC(=O)Oc1ccc(C[C@H](N)C(=O)OCc2ccccc2)cc1OC(C)=O.Cl
(b) COC(=O)[C@H](Cc1ccc(OC(C)=O)c(OC(C)=O)c1)NC(=O)CN.Cl
Query: For a and b , which recorded [L-DOPA] (μg/ml) at time (hours) 4.0 is lower? To answer, give the label that identifies your chosen option.
Response: b
(b: 0.02 µg/mL, a: 0.14 µg/mL)

----------
ASSAY_METHOD_TEXT: Blood concentration of L-DOPA following oral administration of L-DOPA or an L-DOPA derivative to Beagle dogs
CONDITION_PARAMETERS: L-DOPA in blood after oral administration; three Beagle dogs
PROPERTY_NAME: time for reaching the peak (h)

// known answers, use as guide
1. COC(=O)[C@H](Cc1ccc(OC(C)=O)c(OC(C)=O)c1)NC(=O)CN.Cl : 0.80
2. CC(=O)Oc1ccc(C[C@H](NC(=O)CN)C(=O)O)cc1OC(C)=O.Cl : 0.75
3. CC(=O)Oc1ccc(C[C@H](N)C(=O)OCc2ccccc2)cc1OC(C)=O.Cl : 0.5

(I) CC(=O)Oc1ccc(C[C@H](N)C(=O)NCC(=O)O)cc1OC(C)=O.Cl
(II) N[C@@H](Cc1ccc(O)c(O)c1)C(=O)O [(0), 3,4-dihydroxy-L-phenylalanine, reference compound]
Query: Which of the two gives a bigger number for time for reaching the peak: I or II ? To answer, give the label that identifies your chosen option.
Response: II
(II: 1.8 h, I: 1.2 h)

----------
ASSAY_METHOD_TEXT: Blood concentration of L-DOPA following oral administration of L-DOPA or an L-DOPA derivative to Beagle dogs
CONDITION_PARAMETERS: L-DOPA in blood after oral administration; three Beagle dogs
PROPERTY_NAME: L-DOPA at the peak (µg/mL)

1) CC(=O)Oc1ccc(C[C@H](N)C(=O)OCc2ccccc2)cc1OC(C)=O.Cl : 2.3
2) COC(=O)[C@H](Cc1ccc(OC(C)=O)c(OC(C)=O)c1)NC(=O)CN.Cl : 1.7
3) CC(=O)Oc1ccc(C[C@H](N)C(=O)NCC(=O)O)cc1OC(C)=O.Cl : 1.8

(P) COC(=O)[C@@H](N)Cc1ccc(OC(C)=O)c(OC(C)=O)c1.Cl
(Q) CC(=O)Oc1ccc(C[C@H](NC(=O)CN)C(=O)O)cc1OC(C)=O.Cl
(R) N[C@@H](Cc1ccc(O)c(O)c1)C(=O)O [(0), 3,4-dihydroxy-L-phenylalanine, reference compound]
Query: Number of molecules to sort: 3. Sort criterion: L-DOPA at the peak, ascending. Write the labels in rank order as requested.
Response: R, P, Q
(R: 0.9 µg/mL, P: 1.6 µg/mL, Q: 2.4 µg/mL)

----------
ASSAY_METHOD_TEXT: Blood concentration of L-DOPA following oral administration of L-DOPA or an L-DOPA derivative to Beagle dogs
CONDITION_PARAMETERS: blood, 3.0 hours after oral administration of 0.1 of L-DOPA or equivalent amount of derivative; three Beagle dogs
PROPERTY_NAME: [L-DOPA] (μg/ml) at time (hours) 3.0 (µg/mL)

1) CC(=O)Oc1ccc(C[C@H](NC(=O)CN)C(=O)O)cc1OC(C)=O.Cl [Compound (III)] : 0.27

(A) CC(=O)Oc1ccc(C[C@H](N)C(=O)NCC(=O)O)cc1OC(C)=O.Cl [Compound (V)]
(B) COC(=O)[C@H](Cc1ccc(OC(C)=O)c(OC(C)=O)c1)NC(=O)CN.Cl [Compound (IV)]
(C) COC(=O)[C@@H](N)Cc1ccc(OC(C)=O)c(OC(C)=O)c1.Cl [Compound (I)]
Query: Reorder: [L-DOPA] (μg/ml) at time (hours) 3.0, max to min. Write the labels in rank order as requested.
Response: A, C, B
(A: 0.23 µg/mL, C: 0.12 µg/mL, B: 0.08 µg/mL)

----------
ASSAY_METHOD_TEXT: Blood concentration of L-DOPA following oral administration of L-DOPA or an L-DOPA derivative to Beagle dogs
CONDITION_PARAMETERS: blood, 2.0 hours after oral administration of 0.1 of L-DOPA or equivalent amount of derivative; three Beagle dogs
PROPERTY_NAME: [L-DOPA] (μg/ml) at time (hours) 2.0 (µg/mL)

// known answers, use as guide
1) CC(=O)Oc1ccc(C[C@H](N)C(=O)OCc2ccccc2)cc1OC(C)=O.Cl : 0.55
2) N[C@@H](Cc1ccc(O)c(O)c1)C(=O)O [(0), 3,4-dihydroxy-L-phenylalanine, reference compound] : 0.87
3) COC(=O)[C@H](Cc1ccc(OC(C)=O)c(OC(C)=O)c1)NC(=O)CN.Cl : 0.33

(P) CC(=O)Oc1ccc(C[C@H](NC(=O)CN)C(=O)O)cc1OC(C)=O.Cl
(Q) CC(=O)Oc1ccc(C[C@H](N)C(=O)NCC(=O)O)cc1OC(C)=O.Cl
Query: For P and Q , which recorded [L-DOPA] (μg/ml) at time (hours) 2.0 is lower? To answer, give the label that identifies your chosen option.
Response: P

----------
ASSAY_METHOD_TEXT: Blood concentration of L-DOPA following oral administration of L-DOPA or an L-DOPA derivative to Beagle dogs;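 also: dogs of both sexes, 12 to 14 Kg body weight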
CONDITION_PARAMETERS: blood, 1.0 hours after oral administration of 0.1 of L-DOPA or equivalent amount of derivative; three Beagle dogs
PROPERTY_NAME: [L-DOPA] (μg/ml) at time (hours) 1.0 (µg/mL)

// known answers, use as guide
1. COC(=O)[C@H](Cc1ccc(OC(C)=O)c(OC(C)=O)c1)NC(=O)CN.Cl : 1.17
2. CC(=O)Oc1ccc(C[C@H](N)C(=O)NCC(=O)O)cc1OC(C)=O.Cl : 1.30
3. CC(=O)Oc1ccc(C[C@H](NC(=O)CN)C(=O)O)cc1OC(C)=O.Cl : 1.95

(1) N[C@@H](Cc1ccc(O)c(O)c1)C(=O)O [(0), 3,4-dihydroxy-L-phenylalanine, reference compound]
(2) CC(=O)Oc1ccc(C[C@H](N)C(=O)OCc2ccccc2)cc1OC(C)=O.Cl
Query: For 1 and 2 , which recorded [L-DOPA] (μg/ml) at time (hours) 1.0 is lower? To answer, give the label that identifies your chosen option.
Response: 1
